biological target: RSV A2 pre-F (Respiratory syncytial virus A2); assay: ELISA
RECORDED ENDPOINT: EC50 (µg/mL)

>>> readout_number("F6-10 (antibody, V domains shown) VH: DALLLQSGGGLMQPGGSLRLSCAASEFTFNIHAMTWVRQSPGKGLEWVSGISSTGEGTYYTDSVKGRFTISRDNSKSTLYLQMNSLRAEDTATYFCARYSFRYGELRGTFDIWGQGVLVSVSS VL: DIQMTQTPSTLSASVGDRVIITCRASQSVGDSVAWFQQKPGRAPKLLIYDTTNLERGVPSRFSGSFSGTAFTLTITRLQPDDFATYYCQQYDESWTFGQGTKVEVK")
0.0307
>>> readout_number("F6-125 (antibody, V domains shown) VH: QLQLVQSGTEVKKPGASVKVSCKASGYTFSDNAINWVRQAPGQGLEWLGWITANNGNTNYAQKIQGRVTMTTDTSTSTVYMELRSLGSDDTAVYYCAREVVNYGLGSLHFDYWGQGTLVTVSS VL: SYELTQPPSVSVSPGQTVSISCSGDKLGNDYASWYQQKPGQSPLLVIYEDAKRPSGIPERFSGSNSGNTATLTISGTQAMDDADYYCQAWDGTTVIFGGGTKLTVL")
0.0144
>>> readout_number("MEDI8897 (antibody, V domains shown) VH: QVQLVQSGAEVKKPGSSVMVSCQASGGLLEDYIINWVRQAPGQGPEWMGGIIPVLGTVHYGPKFQGRVTITADESTDTAYMELSSLRSEDTAMYYCATETALVVSETYLPHYFDNWGQGTLVTVSS VL: DIQMTQSPSSLSAAVGDRVTITCQASQDIVNYLNWYQQKPGKAPKLLIYVASNLETGVPSRFSGSGSGTDFSLTISSLQPEDVATYYCQQYDNLPLTFGGGTKVEIKR")
0.0313
>>> readout_number("F6-113 (antibody, V domains shown) VH: QVQLQQWGAGLLKPSETLSLTCAVDGASVSDDDWTWIRQSPGKGLEWIGQIDQTGSFNYNPSLRSRVTISPDTSKNHFSLSLTSVTAADTALYYCARGGLVVTDVGQGWDAFDVWGQGTMVTVSS VL: DIQLTQSPSSVSASVGDRITITCRASQDIDNWLAWYQQKPGEAPKLLIYAASTLQSGVPSRFSGSGAGTEFTLTITSLQPEDFAGYFCQQGDSFPLTFGGGTKVDIK")
0.0133
